Each recorded value in this set is attributed to PubChem BioAssay AID1918947.

- Tested on: A498 complex spheroid viability
- measurement_protocol: Anticancer human tumor A498 cell line growth inhibition;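 further: spheroids exposed to agents for seven days before readout; 100% = DMSO vehicle-treated spheroids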
- test_context: second compound 0.316 µM; first compound 0.949 µM; stronger effect = lower value
test_readout: viability, T/C (%)
Give the number; % is assumed, so skip it.

CCN(c1cc(-c2ccc(CN3CCOCC3)cc2)cc(C(=O)NCc2c(C)cc(C)[nH]c2=O)c1C)C1CCOCC1 + NC1CC1c1ccc(-c2cccc(O)c2)cc1 = 101

Q: Find the measured viability, T/C: item O=C(C=Cc1cccc(S(=O)(=O)Nc2ccccc2)c1)NO + NC1CC1c1ccc(-c2cccc(O)c2)cc1 , target or system A498 complex spheroid viability.
A: 34.3

Q: Please answer likewise for O=C(C=Cc1cccc(S(=O)(=O)Nc2ccccc2)c1)NO + NC1CCC(NC2CC2c2ccccc2)CC1
A: 33.1

Q: Check COc1cc(C2c3cc4c(cc3C(OC3OC5COC(C)OC5C(O)C3O)C3COC(=O)C23)OCO4)cc(OC)c1O (stereo not given) + NC1CC1c1ccc(-c2cccc(O)c2)cc1 too.
A: 55.6
